Test system: SK-MEL-5 melanoma
Test: NCI tumour cell line growth inhibition, 48 h
OBSERVED PROPERTY: GI50

# count of solved cases: 2
{"SAMPLE SMILES": "Cc1ccc(-c2cc(C(=O)N=Nc3c(O)[nH]c4ccc(F)cc34)c3ccccc3n2)cc1", "TGT": "SK-MEL-5 melanoma", "GI50": "15.2 µM"}
{"SAMPLE SMILES": "COc1ccc(-c2cc(C(=O)N=Nc3c(O)[nH]c4ccc(Cl)cc34)c3ccccc3n2)cc1", "TGT": "SK-MEL-5 melanoma", "GI50": "15.5 µM"}

Hi, could you look up GI50 for each item in my list?
1. Clc1ccc(-c2nc3ccc(-c4nnc(SCc5ccccc5)o4)cc3[nH]2)cc1
2. Nc1cccnc1/C=N/NC(=S)NCCNC(=O)c1ccc(-n2nc(-c3ccccc3O)nc2-c2ccccc2O)cc1

["4.87 µM", "0.492 µM"]

Each recorded value in this set is attributed to PubChem BioAssay (NCI).
